The reported numbers originate from patent US20230047413A1.

Target: T1, Peptide-2 (human, phosphothreonine 212, phosphothreonine 217 (tau 2N4R numbering); short chain biotin (SCBiot) and dPEG4 at the N-terminus; amide at the C-terminus)
T1 construct: also called pT212/pT217-tau peptide (Peptide-2)
T1 sequence (peptide, as listed by the source): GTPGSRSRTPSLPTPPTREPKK
Test: SPR ProteOn, mAb captured, peptide as analyte
Some binders, each annotated with its measured pKd.
# log scale: pKd equals minus log10 of the concentration in mol/L

binder: B296 (antibody, human IgG1, kappa, V domains shown, Humanized PT3, human IgG1/kappa; also called VH92/VL77; HFA-PT3) VH: QVQLVESGGGVVQPGRSLRLSCAASGFTFSSYAMSWVRQAPGKGLEWVASISKGGNTYYADSVKGRFTISRDNSKNTLYLQMNSLRAEDTAVYYCARGWGDYGWFAYWGQVTLVTVSS VL: DIQMTQSPSSLSASVGDRVTITCKASQDINRYLNWFQQKPGKAPKSLIYRANRLLDGVPSRFSGSGSGTDFTLTISSLQPEDFATYYCLQYDEFPLTFGQGTKLEIKR
pKd: 9.72

binder: B282 (antibody, human IgG1, V domains shown, Humanized (HFA) PT3 variant, human IgG1/kappa; also called VH93/VL77) VH: QVQLVESGGGLVKPGGSLRLSCAASGFTFSSYAMSWIRQAPGKGLEWVSSISKGGNTYYADSVKGRFTISRDNAKNSLYLQMNSLRAEDTAVYYCARGWGDYGWFAYWGQVTLVTVSS VL: DIQMTQSPSSLSASVGDRVTITCKASQDINRYLNWFQQKPGKAPKSLIYRANRLLDGVPSRFSGSGSGTDFTLTISSLQPEDFATYYCLQYDEFPLTFGQGTKLEIK
pKd: 9.35

Noted for B252 (antibody, human IgG1, V domains shown, Humanized (HFA) PT3 variant, human IgG1/kappa; also called VH93/VL80) VH: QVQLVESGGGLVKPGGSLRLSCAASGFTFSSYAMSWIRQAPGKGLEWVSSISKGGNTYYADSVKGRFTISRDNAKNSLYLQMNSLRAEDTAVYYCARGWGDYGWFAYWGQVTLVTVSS VL: DIVMTQTPLSSPVTLGQPASISCKASQDINRYLNWLQQRPGQPPRLLIYRANRLLDGVPDRFSGSGAGTDFTLKISRVEAEDVGVYYCLQYDEFPLTFGQGTKLEIK : its pKd reads 9.76

The value of pKd measured for the binder B280 (antibody, human IgG1, V domains shown, Humanized (HFA) PT3 variant, human IgG1/kappa; also called VH91/VL80) VH: EVQLLESGGGLVQPGGSLRLSCAASGFTFSSYAMSWVRQAPGKGLEWVSSISKGGNTYYADSVKGRFTISRDNSKNTLYLQMNSLRAEDTAVYYCAKGWGDYGWFAYWGQVTLVTVSS VL: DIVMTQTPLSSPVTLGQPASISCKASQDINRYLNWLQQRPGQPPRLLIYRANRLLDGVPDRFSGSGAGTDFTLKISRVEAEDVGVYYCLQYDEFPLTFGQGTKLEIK turned out to be 9.11

Sample B234 (antibody, human IgG1, V domains shown, Mouse PT3 variable regions (VH10/VL7) with human IgG1/kappa constant region; also called mouse PT3, hIgG1) VH: EVKLVESGGDLVKPGGSLKLSCAASGFTFSSYAMSWVRQNPEKRLEWVASISKGGNTYYPNSVKGRFTISRDNARNILYLQMSSLRSEDTALYYCARGWGDYGWFAYWGQVTLVTVSA VL: DIKMTQSPSSMYASLGERVTITCKASQDINRYLNWFQQKPGKSPKTLIYRANRLLDGVPSRFSGSGSGQDYSLTISSLDYEDMGIYYCLQYDEFPLTFGDGTKLELK ; pKd observed: 10.53

get_value(item= B235 (antibody, human IgG1, V domains shown, Humanized (HFA) PT3 variant, human IgG1/kappa; also called VH91/VL77) VH: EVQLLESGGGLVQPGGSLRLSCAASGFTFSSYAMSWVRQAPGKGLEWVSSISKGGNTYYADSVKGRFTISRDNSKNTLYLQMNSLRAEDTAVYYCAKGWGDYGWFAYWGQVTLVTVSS VL: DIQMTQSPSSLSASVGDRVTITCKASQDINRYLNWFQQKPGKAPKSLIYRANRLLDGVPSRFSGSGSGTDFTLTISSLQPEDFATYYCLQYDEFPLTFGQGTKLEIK , readout=pKd) returns 8.75
